# Tested on: HEK/ABCG2-T7
# Measurement Protocol: MTT cytotoxicity/reversal assay (Example 2)
# Condition Summary: read-out: IC50 of SN-38; HEK/ABCG2-T7; alone
Property Label: IC50 (nM)
Numeric only. Scale: nM

response.value for CCc1c2c(nc3ccc(O)cc13)-c1cc3c(c(=O)n1C2)COC(=O)[C@]3(O)CC [SN-38, 7-ethyl-10-hydroxy-20(S)-camptothecin] (field: IC50) = 117

###

# Test Target: ABCB1 (Homo sapiens)
# Construct: made in house; host or cells: High Five insect cells (membrane vesicles / crude membranes)
# Sequence (P08183 whole entry): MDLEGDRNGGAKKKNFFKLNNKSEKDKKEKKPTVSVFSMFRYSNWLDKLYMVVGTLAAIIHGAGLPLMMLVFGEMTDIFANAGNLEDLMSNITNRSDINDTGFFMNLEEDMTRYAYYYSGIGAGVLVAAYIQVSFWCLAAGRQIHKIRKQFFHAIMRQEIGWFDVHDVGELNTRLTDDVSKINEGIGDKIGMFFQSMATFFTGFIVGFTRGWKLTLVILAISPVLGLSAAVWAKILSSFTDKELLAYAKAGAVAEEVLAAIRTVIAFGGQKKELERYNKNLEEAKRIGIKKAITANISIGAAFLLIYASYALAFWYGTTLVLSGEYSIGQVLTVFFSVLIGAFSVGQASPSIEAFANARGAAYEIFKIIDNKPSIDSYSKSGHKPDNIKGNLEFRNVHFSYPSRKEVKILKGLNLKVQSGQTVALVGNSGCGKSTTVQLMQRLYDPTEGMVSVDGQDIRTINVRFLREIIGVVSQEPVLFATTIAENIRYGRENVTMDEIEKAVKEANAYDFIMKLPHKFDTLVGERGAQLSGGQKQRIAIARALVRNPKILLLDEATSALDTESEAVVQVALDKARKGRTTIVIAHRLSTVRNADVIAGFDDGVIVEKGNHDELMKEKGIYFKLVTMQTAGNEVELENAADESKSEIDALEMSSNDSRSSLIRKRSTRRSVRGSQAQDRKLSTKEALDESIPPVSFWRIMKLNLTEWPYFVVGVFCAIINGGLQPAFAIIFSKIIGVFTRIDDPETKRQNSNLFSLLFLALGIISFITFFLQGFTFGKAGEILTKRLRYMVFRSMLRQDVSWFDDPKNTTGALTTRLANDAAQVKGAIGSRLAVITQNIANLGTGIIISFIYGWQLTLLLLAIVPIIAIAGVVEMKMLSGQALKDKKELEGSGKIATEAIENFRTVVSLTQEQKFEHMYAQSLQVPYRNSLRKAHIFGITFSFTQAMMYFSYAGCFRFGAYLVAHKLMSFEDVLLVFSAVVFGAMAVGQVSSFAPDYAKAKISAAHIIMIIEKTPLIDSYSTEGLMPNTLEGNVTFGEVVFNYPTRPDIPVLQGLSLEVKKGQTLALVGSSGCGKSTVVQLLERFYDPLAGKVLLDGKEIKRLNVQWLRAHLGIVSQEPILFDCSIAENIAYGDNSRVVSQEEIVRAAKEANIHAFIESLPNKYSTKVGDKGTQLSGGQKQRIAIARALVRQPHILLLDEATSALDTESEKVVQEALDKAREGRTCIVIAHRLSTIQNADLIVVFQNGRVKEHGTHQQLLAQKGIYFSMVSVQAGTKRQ
# Measurement Protocol: Vi-sensitive ATPase assay (Example 2)
# Format: biochemical
# Condition Summary: read-out: concentration required for 50% stimulation of ATPase activity
# Description: The vanadate (Vi)-sensitive ATPase activity of ABCB1 or ABCG2 in the membrane vesicles of HIGH FIVE™ insect cells was measured as described in Ambudkar et al., supra. […] The liberated inorganic phosphate was measured as described in Shukla et al. (2006) Biochemistry 45:8940-51.
Property Label: EC50

response.value for CCCc1nn(C)c2c(=O)nc(-c3cc(S(=O)(=O)N4CCN(C)CC4)ccc3OCC)[nH]c12 (field: EC50) = 5 to 10 µM

Source listed as patent US8673914B2.
